# test: Whole-blood PK study (IV, IP and PO) in male CD-1 mice
# Type: in vivo, mouse
# condition: male, CD-1, mouse, whole blood, ip, 10 mg/kg, male CD-1 mouse, IP 10 mg/kg, average
# Protocol: Nine male CD-1 mice (25–35 g) were obtained from Hilltop Labs. Duration of acclimation was at least two days. […] Blood samples were taken pre-dose and 5 (except for PO administration), 15, 30 min, 1, 2, 4, and 8 h after dosing. […] The sample was pipetted up and down five times, immediately frozen on dry ice and stored at -60°C to -80°C until analyzed. […] c Bioavailability determined by dividing the individual dose normalized oral AUC last by the average dose normalized intravenous AUC last value. […]
measured metric: half-life (min)
Respond with the bare value in min.

Exam item: For COc1cc(C(=O)/C=C/c2ccc(F)cc2)cc(OC)c1OC [C16, 4-fluoro-3’,4’,5’-trimethoxychalcone] , what is its reported half-life?
Marked response: 48
